Molecular target: human androgen receptor (hAR) (Homo sapiens)
Sequence (P10275 1-920): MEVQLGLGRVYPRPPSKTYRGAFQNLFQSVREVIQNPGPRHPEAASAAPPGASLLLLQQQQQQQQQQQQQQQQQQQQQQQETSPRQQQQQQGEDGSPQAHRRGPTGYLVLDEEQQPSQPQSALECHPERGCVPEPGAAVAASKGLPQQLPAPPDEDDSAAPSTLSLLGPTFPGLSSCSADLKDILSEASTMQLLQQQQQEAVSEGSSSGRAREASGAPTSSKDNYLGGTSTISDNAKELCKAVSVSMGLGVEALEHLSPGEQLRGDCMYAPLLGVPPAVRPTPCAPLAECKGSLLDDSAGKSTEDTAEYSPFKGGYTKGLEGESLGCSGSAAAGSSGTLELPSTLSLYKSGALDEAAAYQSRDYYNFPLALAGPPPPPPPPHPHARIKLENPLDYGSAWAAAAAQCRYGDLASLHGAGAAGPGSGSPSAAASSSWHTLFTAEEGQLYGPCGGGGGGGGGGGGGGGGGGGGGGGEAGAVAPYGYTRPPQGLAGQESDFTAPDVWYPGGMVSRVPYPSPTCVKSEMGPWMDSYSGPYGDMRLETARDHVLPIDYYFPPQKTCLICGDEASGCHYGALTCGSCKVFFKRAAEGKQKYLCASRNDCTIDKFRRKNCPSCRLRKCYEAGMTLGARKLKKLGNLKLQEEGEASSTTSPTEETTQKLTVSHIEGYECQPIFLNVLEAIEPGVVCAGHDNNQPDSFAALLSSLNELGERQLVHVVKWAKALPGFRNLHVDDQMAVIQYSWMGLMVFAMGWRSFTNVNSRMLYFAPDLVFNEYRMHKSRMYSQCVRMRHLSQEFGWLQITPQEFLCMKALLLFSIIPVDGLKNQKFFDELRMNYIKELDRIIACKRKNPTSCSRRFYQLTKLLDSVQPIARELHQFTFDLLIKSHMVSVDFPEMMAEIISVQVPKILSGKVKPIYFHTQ
Assay: Functional response test: hAR transactivation (luciferase reporter) in HALP2 cells
Format: cell-based
From the text: This test constitutes a method of identifying pure or partial agonists which mimic the effects of natural hormones, such as DHT (dihydrotestosterone) in the present case or, on the other hand, antagonists which inhibit them. For this transactivation test, plasmids encoding a reporter gene and the human androgen receptor (hAR) are introduced together by transfection into the HeLa cell line. […]
Reported KSchild (nM) potency is given for each of the following molecules.
parameter: KSchild (nM) potency

- molecule: "CC1(c2ccc(O)cc2)C(=O)N(c2ccc(C#N)c(C(F)(F)F)c2)C(=O)N1CO (centres unmarked)"
  tgt: "human androgen receptor (hAR) (Homo sapiens)"
  parameter: "KSchild (nM) potency"
  experimental result: 150
- molecule: "N#CCCN1C(=O)N(c2ccc(Cl)c(C(F)(F)F)c2)C(=O)C1c1ccc(O)cc1 (centres unmarked)"
  tgt: "human androgen receptor (hAR) (Homo sapiens)"
  parameter: "KSchild (nM) potency"
  experimental result: 30
- molecule: "CN1C(=O)N(c2ccc(C#N)c(C(F)(F)F)c2)C(=O)C1(C)c1ccc(O)cc1F (centres unmarked)"
  tgt: "human androgen receptor (hAR) (Homo sapiens)"
  parameter: "KSchild (nM) potency"
  experimental result: 10
- molecule: "CN(C)CCN1C(=O)N(c2ccc([N+](=O)[O-])c(C(F)(F)F)c2)C(=O)C1c1ccc(O)cc1 (centres unmarked)"
  tgt: "human androgen receptor (hAR) (Homo sapiens)"
  parameter: "KSchild (nM) potency"
  experimental result: 1095.45
- molecule: "CC1(c2ccc(O)cc2)C(=O)N(c2ccc(C#N)c(C(F)(F)F)c2)C(=O)N1C1CC1 (centres unmarked)"
  tgt: "human androgen receptor (hAR) (Homo sapiens)"
  parameter: "KSchild (nM) potency"
  experimental result: 10

---

Target: human androgen receptor (hAR) (Homo sapiens)
Test: Functional response test: hAR transactivation (luciferase reporter) in HALP2 cells
Type: cell-based
Settings: antagonism; concentration which increases the EC50 of the DHT by a factor of 2, Schild regression; HALP2 cells
I would appreciate it if you labelled entries TRUE when KSchild (nM) potency is 100 nM or higher, otherwise FALSE.

- compound: "N#CCN1C(=O)N(c2ccc(F)c(C(F)(F)F)c2)C(=O)C1c1ccc(O)cc1 (stereo not drawn)"
  label: "TRUE"
- compound: "CCOC(=O)CCN1C(=O)N(c2ccc(Cl)c(Cl)c2)C(=O)C1c1ccc(O)cc1 (stereo not drawn)"
  label: "FALSE"
- compound: "C#CCN1C(=O)N(c2cccc(C(F)(F)F)c2)C(=O)C1c1ccc(O)cc1 (stereo not drawn)"
  label: "FALSE"
- compound: "N#CCN1C(=O)N(c2ccc(F)c(Cl)c2)C(=O)C1c1ccc(O)cc1 (stereo not drawn)"
  label: "TRUE"
- compound: "O=C1C(c2ccc(O)cc2)N(CCO)C(=O)N1c1ccc(F)c(C(F)(F)F)c1 (stereo not drawn)"
  label: "TRUE"
- compound: "O=C1C(c2ccc(O)cc2)N(Cc2ccsc2)C(=S)N1c1ccc(Cl)cc1Cl (stereo not drawn)"
  label: "TRUE"
- compound: "CN(C)CCN1C(=O)N(c2ccc(F)c(Cl)c2)C(=O)C1c1ccc(O)cc1 (stereo not drawn)"
  label: "TRUE"
- compound: "CN1C(=O)N(c2ccc(Cl)c(Cl)c2)C(=O)C1(CF)c1ccc(O)cc1 (stereo not drawn)"
  label: "FALSE"
- compound: "CN(C)CCN1C(=O)N(c2cccc(C(F)(F)F)c2)C(=O)C1c1ccc(O)cc1 (stereo not drawn)"
  label: "TRUE"

---

Target: human androgen receptor (hAR) (Homo sapiens, UniProt P10275)
Experiment: Functional response test: hAR transactivation (luciferase reporter) in HALP2 cells
Format: cell-based
parameter: KSchild (nM) potency

- compound: "CCOCCCN1C(=O)N(c2ccc(C#N)c(C(F)(F)F)c2)C(=O)C1c1ccc(O)cc1 (centres unmarked) [Example 82]"
  experimental result: 30
- compound: "CN1C(=O)N(c2ccc(C#N)c(C(F)(F)F)c2)C(=O)C1(C)c1ccc(O)c(Cl)c1 (centres unmarked) [Example 173]"
  experimental result: 3
- compound: "CN1C(=O)N(c2ccc([N+](=O)[O-])cc2)C(=O)C1c1ccc(O)cc1 (centres unmarked) [Example 50]"
  experimental result: 9.9
- compound: "CC1(c2ccc(O)cc2)C(=O)N(c2ccc(C#N)c(C(F)(F)F)c2)C(=O)N1CC#CCO (centres unmarked) [Example 243]"
  experimental result: 4.56
- compound: "CN1C(=O)N(c2ccc(C#N)c3c2CCC3)C(=O)C1(C)c1ccc(O)cc1 (centres unmarked) [Example 33]"
  experimental result: 0.78
- compound: "CCc1cc(C#N)ccc1N1C(=O)N(C)C(C)(c2ccc(O)cc2)C1=O (centres unmarked) [Example 37]"
  experimental result: 24.49
- compound: "COC(=O)CN1C(=O)N(c2ccc(C#N)c(C(F)(F)F)c2)C(=O)C1(C)c1ccc(O)cc1 (centres unmarked) [Example 227]"
  experimental result: 3.46
- compound: "O=C1C(c2ccc(O)cc2)N(CCCCO)C(=O)N1c1ccc([N+](=O)[O-])c(C(F)(F)F)c1 (centres unmarked) [Example 131]"
  experimental result: 600
- compound: "CN1C(=O)N(c2ccc(C#N)c(C(F)(F)F)c2)C(=O)C1(CF)c1ccc(O)cc1 (centres unmarked) [Example 177]"
  experimental result: 0.72
- compound: "N#CCN1C(=O)N(c2ccc(Cl)c(C(F)(F)F)c2)C(=O)C1c1ccc(O)cc1 (centres unmarked) [Example 93]"
  experimental result: 30
- compound: "CN1C(=O)N(c2ccc(C#N)c(C(F)(F)F)c2)C(=O)C1(c1ccc(O)cc1)C(F)(F)F (centres unmarked) [Example 179]"
  experimental result: 15
- compound: "CN1C(=O)N(c2ccc(C#N)c(C(F)(F)F)c2)C(=O)[C@]1(CF)c1ccc(O)cc1 [Example 177.1]"
  experimental result: 310
- compound: "CN1C(=O)N(c2ccc(C#N)c3c2CCCC3)C(=O)C1(C)c1ccc(O)cc1 (centres unmarked) [Example 34]"
  experimental result: 3.3
- compound: "N#CCCN1C(=O)N(c2ccc([N+](=O)[O-])cc2)C(=O)C1c1ccc(O)cc1 (centres unmarked) [Example 129]"
  experimental result: 34.64
- compound: "O=C1C(c2ccc(O)cc2)N(CCO)C(=O)N1c1ccc([N+](=O)[O-])c(C(F)(F)F)c1 (centres unmarked) [Example 138]"
  experimental result: 600
- compound: "CC1(c2ccc(O)cc2)C(=O)N(c2ccc(C#N)c(C(F)(F)F)c2)C(=O)N1CCO (centres unmarked) [Example 239]"
  experimental result: 10
- compound: "CCCC1(c2ccc(O)cc2)C(=O)N(c2ccc(C#N)c(C(F)(F)F)c2)C(=O)N1C (centres unmarked) [Example 182.1]"
  experimental result: 15

---

Reported melting point is given for each of the following compounds.

- compound: "CN1C(=O)N(c2ccc(Cl)c(Cl)c2)C(=O)C1c1ccc(O)cc1 (centres unmarked) [Example 1]"
  units label: "°C"
  melting point: 200
- compound: "CN1C(=O)N(c2ccc(Cl)c(Cl)c2)C(=O)C1(C)c1ccc(O)cc1 (centres unmarked) [Example 25]"
  units label: "°C"
  melting point: 184
- compound: "CCN1C(=O)N(c2ccc(C#N)c(C(F)(F)F)c2)C(=O)C1(C)c1ccc(O)cc1 (centres unmarked) [Example 224]"
  units label: "°C"
  melting point: 165
- compound: "C#CCN1C(=O)N(c2ccc(C#N)c(C(F)(F)F)c2)C(=O)C1c1ccc(O)cc1 (centres unmarked) [Example 4]"
  units label: "°C"
  melting point: 195
- compound: "C#CCN1C(=S)N(c2ccc(C#N)c(C(F)(F)F)c2)C(=O)C1(C)c1ccc(O)cc1 (centres unmarked) [Example 43]"
  units label: "°C"
  melting point: 169
